- target_desc: T1, LHD101B (biotin on the Avi-tag where immobilised (Fig. S3D))
- T1 construct: de novo designed protomer; also called LHD101 protomer B; source: E. coli BL21 LEMO, purified (Ni-NTA, SEC)
- assay_protocol: BLI; biotinylated protomer on streptavidin biosensors, designed partner in solution; 25 °C; 10 mM HEPES pH 7.4, 150 mM NaCl, 3 mM EDTA, 0.05% Surfactant P20, 1 mg/ml BSA; steady-state fit, 1:1 model
- measurement_setup: both partners purified
property_name: Kd (nM)
# value in nM; strip the unit string

q: // lookup Kd for LHD101A (designed binder, biotin on the Avi-tag where immobilised (Fig. S3D, S24B)) GRQEKVLKSIEETVRKMGVTMETHRSGNEVKVVIKGLHIKQQRQLYRDVRETSKKQGVETEIEVEGDTVTIVVRE
a: 9.5

// provenance: paper PMC9881579
